Cited source for all entries: paper PMC6136712

Test system: normal esophageal epithelium cell line EACN42
RUN DESCRIPTION: FDA library drug sensitivity testing (CellTiter-Glo, 72 h), normal control cells
Format: cell-based, human
MEASUREMENT CONTEXT: Homo sapiens, 72 h, EACN42 normal esophageal cells, cell viability (ATP), max test concentration 10μM
pEC50: −log10 of the molar value. Structures can show the parent of a compound that is named as a salt.
molecules and their reported pEC50

[
  {
    "MOLECULE": "CC1=C(CC(=O)O)c2cc(F)ccc2/C1=C\\c1ccc([S+](C)[O-])cc1 (centres unmarked) [Sulindac]",
    "MODIFIER SIGN": "=",
    "pEC50": 7.30
  },
  {
    "MOLECULE": "Nc1nc(F)nc2c1ncn2[C@@H]1O[C@H](CO)[C@@H](O)[C@@H]1O [Fludarabine]",
    "MODIFIER SIGN": "=",
    "pEC50": 7.15
  },
  {
    "MOLECULE": "CCc1c2c(nc3ccc(OC(=O)N4CCC(N5CCCCC5)CC4)cc13)-c1cc3c(c(=O)n1C2)COC(=O)[C@]3(O)CC [Irinotecan]",
    "MODIFIER SIGN": "=",
    "pEC50": 5.29
  },
  {
    "MOLECULE": "S=c1[nH]cnc2nc[nH]c12 [Mercaptopurine]",
    "MODIFIER SIGN": "<",
    "pEC50": 5.00
  },
  {
    "MOLECULE": "Clc1ccc(C(c2ccccc2Cl)C(Cl)Cl)cc1 (centres unmarked) [Mitotane]",
    "MODIFIER SIGN": "=",
    "pEC50": 8.22
  },
  {
    "MOLECULE": "CCCCCCNC(=O)n1cc(F)c(=O)[nH]c1=O [Carmofur]",
    "MODIFIER SIGN": "=",
    "pEC50": 6.15
  },
  {
    "MOLECULE": "O=c1[nH]cc(F)c(=O)[nH]1 [Adrucil]",
    "MODIFIER SIGN": "=",
    "pEC50": 6.04
  },
  {
    "MOLECULE": "Cc1[nH]c2ccccc2c1CCNCc1ccc(/C=C/C(=O)NO)cc1 [Panobinostat]",
    "MODIFIER SIGN": "=",
    "pEC50": 7.05
  },
  {
    "MOLECULE": "O=C(/C=C/c1cccc(S(=O)(=O)Nc2ccccc2)c1)NO [Belinostat]",
    "MODIFIER SIGN": "=",
    "pEC50": 5.97
  },
  {
    "MOLECULE": "Nc1nc(Cl)nc2c1ncn2[C@@H]1O[C@H](CO)[C@@H](O)[C@@H]1F [Clofarabine]",
    "MODIFIER SIGN": "=",
    "pEC50": 7.15
  },
  {
    "MOLECULE": "CCCC(CCC)C(=O)O [Valproic acid sodium salt]",
    "MODIFIER SIGN": "=",
    "pEC50": 5.70
  },
  {
    "MOLECULE": "Nc1cccc2c1C(=O)N(C1CCC(=O)NC1=O)C2=O (centres unmarked) [Pomalidomide]",
    "MODIFIER SIGN": "=",
    "pEC50": 9.80
  },
  {
    "MOLECULE": "COc1c2ccoc2cc2oc(=O)ccc12 [Bergapten]",
    "MODIFIER SIGN": "=",
    "pEC50": 7.30
  },
  {
    "MOLECULE": "CC(=O)O[C@@]12CO[C@@H]1C[C@H](O)[C@@]1(C)C(=O)[C@H](O)C3=C(C)[C@@H](OC(=O)[C@H](O)[C@@H](NC(=O)OC(C)(C)C)c4ccccc4)C[C@@](O)([C@@H](OC(=O)c4ccccc4)[C@H]21)C3(C)C [Docetaxel]",
    "MODIFIER SIGN": "=",
    "pEC50": 5.52
  },
  {
    "MOLECULE": "COc1cc2c(cc1O)CC[C@@H]1[C@@H]2CC[C@]2(C)[C@@H](O)CC[C@@H]12 [2-Methoxyestradiol]",
    "MODIFIER SIGN": "<",
    "pEC50": 5.00
  },
  {
    "MOLECULE": "COC(=O)C1=C(C#N)NC(C)=C(C(=O)OC(C)C)C1c1cccc([N+](=O)[O-])c1 (centres unmarked) [Nilvadipine]",
    "MODIFIER SIGN": "=",
    "pEC50": 8.00
  },
  {
    "MOLECULE": "COc1cccc2c1C(=O)c1c(O)c3c(c(O)c1C2=O)C[C@@](O)(C(=O)CO)C[C@@H]3O[C@H]1C[C@H](N)[C@@H](O)[C@H](C)O1 [Epirubicin Hydrochloride]",
    "MODIFIER SIGN": "=",
    "pEC50": 5.92
  }
]
